The reported measurements were obtained from paper PMC8813930.

Biological target: BLMCR (Homo sapiens, UniProt P54132 642-1290)
Sequence (P54132 642-1290): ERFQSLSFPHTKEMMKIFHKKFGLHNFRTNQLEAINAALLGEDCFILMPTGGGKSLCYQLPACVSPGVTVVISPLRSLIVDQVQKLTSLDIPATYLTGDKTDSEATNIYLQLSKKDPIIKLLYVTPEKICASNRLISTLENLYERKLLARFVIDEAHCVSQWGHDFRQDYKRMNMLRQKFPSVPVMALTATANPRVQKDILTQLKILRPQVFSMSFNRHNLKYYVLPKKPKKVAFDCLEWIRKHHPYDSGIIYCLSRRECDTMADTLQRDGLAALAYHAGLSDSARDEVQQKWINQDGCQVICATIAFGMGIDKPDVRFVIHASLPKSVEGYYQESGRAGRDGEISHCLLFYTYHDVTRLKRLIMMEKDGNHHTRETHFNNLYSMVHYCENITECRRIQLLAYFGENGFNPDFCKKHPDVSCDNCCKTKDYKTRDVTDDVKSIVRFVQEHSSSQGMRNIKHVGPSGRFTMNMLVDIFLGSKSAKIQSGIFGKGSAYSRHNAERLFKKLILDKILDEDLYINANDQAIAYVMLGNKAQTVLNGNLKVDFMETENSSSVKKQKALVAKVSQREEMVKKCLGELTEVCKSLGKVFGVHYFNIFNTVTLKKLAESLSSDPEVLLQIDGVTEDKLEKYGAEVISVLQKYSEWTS
Assay: fluorescence anisotropy; no ATP; 5 mM MgCl2; 50 mM Tris-HCl pH 7.5, 50 mM NaCl, 1 mM DTT, 5 mM MgCl2, 50 µg/mL BSA, 25 °C; 10 nM labeled DNA in direct titrations
Conditions: protein: recombinant; label: 3'-fluorescein; single strand
property: pKd
The quantity pKd is defined as the negative base-10 logarithm of the molar concentration.

In plain terms, ss54-FLU (ssDNA) DNA: TCCTTTTGATAAGAGGTCATTTTTGCGGATGGCTTAGAGCTTAATTGCGCAACG has a documented pKd of 7.13
